target: T1, cynomolgus (cyno) TMEM106B (cynomolgus, UniProt Q9NUM4 2-274 (human entry)); assay: flow cytometry, HEK293 cells transiently transfected with cyno TMEM106B
T1 construct: Full-length cDNA transiently transfected into HEK293 cells
recorded-metric: fold-change in binding over parental HEK293 cells (fold)
Numbers only; they are read as fold.

For reference, reported fold-change in binding over parental HEK293 cells for TM-85 (antibody, V domains shown, Purified from mouse hybridoma) VH: QVQLQQPGAELVRAGTSVKLSCKASGYTFIGYWMHWVKQRPGRGLEWIGRIDPYSGDTRYNEKFKNKATLTVDKPSSTAYMQLSSLTSEDSAVYYCARYGLGHAMDYWGQGTSVTVSS VL: DIAMSQSQKFMSTSVGDRVSVTCKASQNVGTNVAWYQQKPGQSPKALIYSASYRYSGVPDRFTGSGSGTDFTLTISNVQSEDLAEYFCQQYNSYPLTFGAGTKLEMK stands at 0.18

For reference, reported fold-change in binding over parental HEK293 cells for TM-87 (antibody, V domains shown, Purified from mouse hybridoma) VH: EVQLQQSGPVLVKPGASVKLSCKASGYTFTDYYMNWVKQSHGKSLEWIGVINPYNGATSYNQKFQDKATLTVDKSSSTAYMGLNSLTSEDSAVYYCANGNYDWYFDVWGTGTTVTVSS VL: DVQITQSPSYLAASPGETITINCRASRSISKYLAWYQEKPGKTNKLLIYSGSTLQSGIPSRFSGSGSGTDFTLTISSLEPEDFAVYYCQQHNEYPLTFGAGTKLELK stands at 7.21

For reference, reported fold-change in binding over parental HEK293 cells for TM-63 (antibody, V domains shown, Purified from mouse hybridoma) VH: QVQLQQPGAELVKFGASVKLSCKASGYTFTSFWMHWVKQRPGQGLEWIGNIDPSDSETHYSQKFKDKATLTVDRSSNTAYIQLSSLTSEDSAVYYCARSSNWDNFDYWGQGTTVTVSS VL: DIVMTQASPSVSVTPGESVSISCRSSQSLLHVNGNTYLYWFLQRPGRSPRLLIYRMSNLASGVPDRFSGSGSGTAFTLRISRVEAEDVGVYYCMQHLQYPFSFGSGTKLEMK stands at 8.24

For reference, reported fold-change in binding over parental HEK293 cells for TM-54 (antibody, V domains shown, Purified from mouse hybridoma) VH: QVQMQQSGPVLVKPGASVTLSCKASGYTFTTYDLNWVKQRPGQGLEWIGWIYPRGGSTEYNEKFKGKATLTVDTSSSTAYMELHSLTSEDSAVYFCAKYSIYAMDYWGQGTSVTVSS VL: DVLMTQTPLSLPVSLGDQASISCRSSQSIVHGNGNTYLEWYLQKPGQSPKLLIYKVSNRFSGVPDRFSGSGSGTDFTLKISRVEAEDLGVYYCFQGSHVPWTFGGGTKLEMK stands at 6.27

For reference, reported fold-change in binding over parental HEK293 cells for TM-80 (antibody, V domains shown, Purified from mouse hybridoma) VH: QVQLQQPGAELVKPGASVKLSCKASGYTFTTFWMHWVKQRPGQGLEWIGNIDPSDSETHYNQEFKDKATLTVDRSSNTAYMQLSSLTSEDSAVYYCARSSNWDNFDYWGQGTAVTVSS VL: DIVMTQAAPSVPVTPGESVSISCRSSQSLLHVNGHTYLYWFLQRPGQSPQLLIYRMSNLASGVPDRFSGSGSGTVFTLRISRVETEDVGIYYCMQHLQYPFTFGSGTKLEIK stands at 4.33

// provenance: patent US20240174746A1
